B1: Azoarcus group I ribozyme (parent)
chain: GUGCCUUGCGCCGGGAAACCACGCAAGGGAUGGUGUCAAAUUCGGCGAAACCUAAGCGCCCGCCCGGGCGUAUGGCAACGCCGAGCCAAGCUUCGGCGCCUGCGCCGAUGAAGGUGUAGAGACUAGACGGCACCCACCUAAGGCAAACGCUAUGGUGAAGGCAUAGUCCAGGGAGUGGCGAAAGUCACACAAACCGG

# Variants of: B1
# assay: reverse-splicing fitness (ratio to wild type); higher = more active; in vitro selection; Mg2+ level not given
This listing pairs variants with measured reverse-splicing fitness.
outcome-measure: reverse-splicing fitness

variant-identifier	obs-value
C82U A145C C150A U176G	0.0119
C82U A111G A120U A145U C150G C169G U176C	0.00239
C82A A111C C150A C169U U176A	0.0161
A111U A120C C150G C169G	0.0073
C82A A111C A145G C150A C169G U176C	0.0253
A111U A145U C150U C169G U176A	0.016
C82A A145G C150A U176C	0.0855
A111G A120C A145C C150G C169A U176A	0.00532
C82U A111U A120U A145G C169U U176G	0.00207
C82A A111G A120G A145C C169A U176A	0.0117
C82U A111C A120U A145U C150G U176A	0.00354
C82U A145C C150U U176A	0.114
C82A A111C A120C A145G C150U U176A	0.0119
C82G A120U A145U C150U C169U U176A	0.00283
A120G A145U C150U C169G U176G	0.00892
C82G A111G A120G A145U C169G	0.0203
C82U A145G C150A C169G	0.00784
C82A A111G A120U A145G C150G C169U U176C	0.00796
A111G C169U	0.196
C82G A111C A120U A145C C150G C169A U176C	0.00252
C82U A111U C169A U176A	0.0141
C82G A111G A120G A145U C150G C169U U176A	0.0117
C82G A111G C150A U176C	0.0385
A111U A120C A145C C150U C169G U176C	0.00958
A111U A120G A145C C150U U176G	0.00458
C82A A111G A120G A145C C150A C169U	0.00881
A120U A145C C150A U176C	0.061
C82A A120U A145G C150G C169A	0.0097
C82U A111U A120C A145G C150U U176G	0.00597
C82U A111U A120G C150A C169U U176C	0.0171
C82A A111G A120G A145G C150U C169G	0.0113
C82G A145G C169A U176C	0.0249
C82A A111C A145G C169G U176G	0.00836
C82U A111U A145C C150G C169U U176G	0.00515
C82U A111C A145C C150A U176C	0.0145
C82A A111C A120G C150G C169G U176A	0.00664
C82U A120U A145U C150G C169U U176A	0.00257
A111G A120U A145U C150A C169U U176A	0.00329
C82A A111G C150G C169A U176C	0.0122
C82G A120U C150U	0.1
A111G C150U C169G U176C	0.0386
A145C C150G C169G U176A	0.0135
C82U A120C A145C C150A C169A U176C	0.00429
C82U A111G A120U A145G C169G U176A	0.00278
C82G A111C A120U C150G C169A U176A	0.00878
A120C C150G C169A	0.0115

The values you see were collected from the RNAGym collection of RNA variant scans (doi:10.1093/molbev/msab373).
